# assayed system: mouse TRPA1 (Mus musculus, UniProt Q8BLA8)
# Construct: expressed in transfected cells; host or cells: CHO cells (tetracycline-induced for PatchXpress; mTRPA1-pcDNA5 named for the transient labelling experiment)
# Sequence (Q8BLA8 whole entry): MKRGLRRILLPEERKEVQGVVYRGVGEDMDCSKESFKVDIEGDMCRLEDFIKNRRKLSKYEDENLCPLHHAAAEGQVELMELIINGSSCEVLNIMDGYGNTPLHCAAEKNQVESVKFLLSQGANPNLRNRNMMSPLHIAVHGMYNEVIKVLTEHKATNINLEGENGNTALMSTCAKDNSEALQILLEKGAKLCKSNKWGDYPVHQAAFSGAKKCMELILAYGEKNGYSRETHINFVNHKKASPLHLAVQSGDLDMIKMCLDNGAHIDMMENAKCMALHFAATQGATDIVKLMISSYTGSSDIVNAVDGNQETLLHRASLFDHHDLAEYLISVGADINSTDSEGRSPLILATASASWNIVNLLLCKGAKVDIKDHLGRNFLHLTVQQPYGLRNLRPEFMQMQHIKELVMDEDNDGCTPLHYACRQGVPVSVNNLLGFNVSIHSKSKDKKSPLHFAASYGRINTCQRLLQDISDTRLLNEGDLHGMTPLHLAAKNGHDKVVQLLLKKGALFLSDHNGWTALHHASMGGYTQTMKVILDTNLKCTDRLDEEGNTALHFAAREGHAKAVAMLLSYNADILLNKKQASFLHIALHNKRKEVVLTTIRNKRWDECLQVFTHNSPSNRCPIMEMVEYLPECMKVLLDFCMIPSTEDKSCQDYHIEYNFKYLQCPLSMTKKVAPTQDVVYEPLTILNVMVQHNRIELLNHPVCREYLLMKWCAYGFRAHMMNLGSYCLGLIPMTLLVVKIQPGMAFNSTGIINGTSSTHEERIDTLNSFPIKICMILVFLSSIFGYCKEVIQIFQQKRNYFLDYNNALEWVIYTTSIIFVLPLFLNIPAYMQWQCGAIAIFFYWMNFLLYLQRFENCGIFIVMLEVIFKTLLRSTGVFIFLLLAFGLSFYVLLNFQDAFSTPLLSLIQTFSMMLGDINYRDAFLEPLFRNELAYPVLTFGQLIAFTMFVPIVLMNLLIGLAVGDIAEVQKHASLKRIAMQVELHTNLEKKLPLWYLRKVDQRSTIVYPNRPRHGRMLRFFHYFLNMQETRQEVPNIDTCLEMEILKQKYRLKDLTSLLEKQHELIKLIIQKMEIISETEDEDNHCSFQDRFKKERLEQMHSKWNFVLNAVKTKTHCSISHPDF
# test method notes: FLIPR calcium-influx assay, block of cinnamaldehyde activation, CHO cells
# Format: cell-based
# condition: with 25 μM compound 18
reported endpoint: EC50 (µM)
Give just the numeric value; µM need not be written.

## Task Quick one: EC50 for O=CC=Cc1ccccc1 ?
## Result 220

====

# assayed system: mouse TRPA1 (Mus musculus, UniProt Q8BLA8)
# Construct: mTRPA1-pcDNA5 named for the transient labelling experiment)
# test method notes: FLIPR calcium-influx assay, block of cinnamaldehyde activation, CHO cells
# condition: elicited by 50 μM cinnamaldehyde, CHO cells
reported endpoint: IC50
Answer shape: numeric part, then the unit.

## Task Quick one: IC50 for CC(=Cc1ccc(Cl)cc1)C(C)=NO ?
## Result 4.5 µM

====

# assayed system: TRPA1 (Homo sapiens, UniProt O75762)
# Sequence (O75762 whole entry): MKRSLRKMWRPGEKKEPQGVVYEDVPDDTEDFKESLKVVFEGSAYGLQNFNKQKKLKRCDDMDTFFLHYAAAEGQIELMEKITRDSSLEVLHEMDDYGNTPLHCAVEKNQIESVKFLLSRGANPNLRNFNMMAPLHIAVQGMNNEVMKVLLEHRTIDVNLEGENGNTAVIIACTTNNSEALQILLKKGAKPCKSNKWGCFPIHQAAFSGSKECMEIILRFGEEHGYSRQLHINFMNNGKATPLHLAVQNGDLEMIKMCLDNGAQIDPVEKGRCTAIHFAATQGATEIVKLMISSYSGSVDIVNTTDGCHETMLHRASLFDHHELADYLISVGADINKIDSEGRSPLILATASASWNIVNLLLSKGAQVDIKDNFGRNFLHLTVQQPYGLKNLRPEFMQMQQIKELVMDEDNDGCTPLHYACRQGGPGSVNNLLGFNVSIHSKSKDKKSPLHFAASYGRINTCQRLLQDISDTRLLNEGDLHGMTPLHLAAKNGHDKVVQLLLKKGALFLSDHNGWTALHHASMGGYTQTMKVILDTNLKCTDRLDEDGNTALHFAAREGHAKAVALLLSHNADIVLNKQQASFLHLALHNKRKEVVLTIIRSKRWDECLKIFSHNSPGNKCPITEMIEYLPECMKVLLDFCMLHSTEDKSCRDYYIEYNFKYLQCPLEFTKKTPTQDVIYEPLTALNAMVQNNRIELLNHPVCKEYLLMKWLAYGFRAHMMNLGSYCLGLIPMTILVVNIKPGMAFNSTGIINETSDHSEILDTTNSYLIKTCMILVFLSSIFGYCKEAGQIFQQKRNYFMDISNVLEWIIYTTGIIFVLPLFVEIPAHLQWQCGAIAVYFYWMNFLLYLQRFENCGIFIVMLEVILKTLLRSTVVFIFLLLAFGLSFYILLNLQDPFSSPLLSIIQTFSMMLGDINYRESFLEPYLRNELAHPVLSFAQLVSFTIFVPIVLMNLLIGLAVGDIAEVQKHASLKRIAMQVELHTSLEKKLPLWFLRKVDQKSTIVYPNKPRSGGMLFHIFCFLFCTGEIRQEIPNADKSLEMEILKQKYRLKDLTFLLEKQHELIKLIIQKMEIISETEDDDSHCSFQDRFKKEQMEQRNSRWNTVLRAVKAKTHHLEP
# test method notes: FLIPR calcium-influx assay, block of cinnamaldehyde activation, CHO cells
# condition: elicited by 50 μM cinnamaldehyde
reported endpoint: pIC50
Keep in mind that pIC50 stands for -log10 of concentration in molar terms.

## Task Quick one: pIC50 for CC(=Cc1ccc(Cl)cc1)C(C)=NO [Compound 18] ?
## Result 5.51
